Reported Kd values are given for each entry in this list.
Molecular target: T1, human IL-18BP (human, UniProt O95998 31-194)
T1 construct: UniProt printed as 095998; also called hIL-18BP
T1 sequence: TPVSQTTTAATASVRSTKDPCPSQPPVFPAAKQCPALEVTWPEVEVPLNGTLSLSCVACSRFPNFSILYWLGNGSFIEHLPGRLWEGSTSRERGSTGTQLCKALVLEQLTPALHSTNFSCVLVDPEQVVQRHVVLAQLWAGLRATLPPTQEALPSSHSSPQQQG
Experiment: BLI, apparent KD
QUANTITY_KIND: Kd

# BINDER, MEASUREMENT
rows = [
    ("SA301a HC-Y100A (antibody, V domains shown) VH: QVQLQESGPGLVKPSQTLSLTCTVSGYSITSDYNSHWIRQPPGKGLEWIGYIHYSGSTNYNPSLKSRVTISRDTSKNQFSLKLSSVTAADTAVYYCARNYGSIAVNYFDYWGQGTLVTVSS VL: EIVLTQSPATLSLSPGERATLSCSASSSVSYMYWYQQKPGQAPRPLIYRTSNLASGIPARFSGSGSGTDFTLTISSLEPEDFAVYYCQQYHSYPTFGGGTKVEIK", "880 pM"),
    ("SA301a HC-V100aT (antibody, name in Kabat numbering, V domains shown, IgG1 kappa) VH: QVQLQESGPGLVKPSQTLSLTCTVSGYSITSDYNSHWIRQPPGKGLEWIGYIHYSGSTNYNPSLKSRVTISRDTSKNQFSLKLSSVTAADTAVYYCARNYGSIYTNYFDYWGQGTLVTVSS VL: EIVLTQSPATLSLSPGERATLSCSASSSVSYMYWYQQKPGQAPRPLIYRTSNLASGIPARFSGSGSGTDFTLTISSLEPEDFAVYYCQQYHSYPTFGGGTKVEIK", "270 pM"),
    ("SA301a HC-V100aN (antibody, name in Kabat numbering, V domains shown, IgG1 kappa) VH: QVQLQESGPGLVKPSQTLSLTCTVSGYSITSDYNSHWIRQPPGKGLEWIGYIHYSGSTNYNPSLKSRVTISRDTSKNQFSLKLSSVTAADTAVYYCARNYGSIYNNYFDYWGQGTLVTVSS VL: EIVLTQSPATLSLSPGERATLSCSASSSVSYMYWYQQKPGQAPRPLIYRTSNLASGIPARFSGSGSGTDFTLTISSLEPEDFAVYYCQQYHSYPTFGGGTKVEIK", "680 pM"),
]
